Tested on: soluble human BACE1 catalytic domain (Homo sapiens (Human), UniProt P56817)
Sequence (P56817 75-416): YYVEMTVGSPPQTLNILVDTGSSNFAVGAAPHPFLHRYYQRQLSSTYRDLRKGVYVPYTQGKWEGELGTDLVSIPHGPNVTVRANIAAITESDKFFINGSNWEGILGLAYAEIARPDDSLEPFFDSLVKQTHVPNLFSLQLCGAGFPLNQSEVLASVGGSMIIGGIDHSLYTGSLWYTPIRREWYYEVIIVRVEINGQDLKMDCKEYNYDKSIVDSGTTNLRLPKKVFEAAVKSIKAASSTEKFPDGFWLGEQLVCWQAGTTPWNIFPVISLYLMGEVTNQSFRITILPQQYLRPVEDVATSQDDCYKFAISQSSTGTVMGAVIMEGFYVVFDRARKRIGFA
Procedure details: BACE1 HTRF FRET Assay
Condition summary: read-out: BACE1 Ki; Ki calculated from IC50 using the Cheng-Prusoff equation
Measured attribute: pKi
Scale for pKi: -log10 of concentration given in mol/L; no unit attached.

Examples from the recorded data:
CC1(C)C(=N)N[C@](C)(c2sc(C(=O)NCc3ccccc3Cl)cc2Cl)CS1(=O)=O [Example 22h] : 5.79
CCC(=O)Nc1ccc(F)c([C@]2(C)CS(=O)(=O)C(C)(C)C(=N)N2)c1 [Example 9as] : 6.28
CC1(C)C(=N)N[C@](C)(c2sc(-c3cncnc3)cc2Cl)CS1(=O)=O [Example 24] : 6.41
CC1(C)C(=N)N[C@](C)(c2cc(NC(=O)c3ccc(Cl)cc3)ccc2F)CS1(=O)=O [Example 8] : 7.72
CCc1cccc(NC(=O)c2cc(Cl)c([C@]3(C)CS(=O)(=O)C(C)(C)C(=N)N3)s2)n1 [Example 19] : 6.87

Enquiry: Can you share its pKi? I mean this molecule: CC(=O)Nc1cc(F)c(F)c([C@]2(C)CS(=O)(=O)C(C)(C)C(=N)N2)c1 [Example 9bn]
Return: 5.99

Enquiry: Can you share its pKi? I mean this molecule: C[C@@]1(c2cc(NC(=O)c3ccc(F)cn3)ccc2F)CS(=O)(=O)[C@@](C)(c2ccc(F)cc2)C(=N)N1 [Example 9df-a]
Return: 8.64

Enquiry: Can you share its pKi? I mean this molecule: C[C@]1(CC(F)(F)F)C(=N)N[C@](C)(c2cc(NC(=O)c3ccc(F)cn3)ccc2F)CS1(=O)=O [Example 9dp-a]
Return: 8.21
